Tested on: Carnobacterium 1 (Carnobacterium gallinarum)
Assay: relative growth (AUC of 72 h growth curve relative to DMSO control, dAUC) (ratio); higher = more growth (less inhibition), active = hit call of the paper
Conditions: 20 µM
Classification by relative growth | ranges: low range = under 0.9, mid range = from 0.9 up to 1, high range = 1 and over

// below: answered compounds
{"Compound": "Cc1cc(C(C#N)c2ccc(Cl)cc2)c(Cl)cc1NC(=O)c1cc(I)cc(I)c1O (centres undefined)", "Label": "low range"}
{"Compound": "COC(=O)NC(=S)Nc1ccccc1NC(=S)NC(=O)OC", "Label": "low range"}
{"Compound": "Cc1c(COC(=O)[C@@H]2[C@H](/C=C(\\Cl)C(F)(F)F)C2(C)C)cccc1-c1ccccc1 (racemic)", "Label": "high range"}

Ask: Place this compound in its band: `Cc1nnc(-c2ccccc2)c(=O)n1N`
Reply: mid range

Ask: Do the same for `C/C(=N\C#N)N(C)Cc1ccc(Cl)nc1` please
Reply: high range

Ask: Would you kindly repeat that for OC(Cc1ccccc1Cl)(Cn1nc[nH]c1=S)C1(Cl)CC1 (centres undefined) ?
Reply: low range

Ask: Request: CC1(C)C(C(=O)OC(C#N)c2cccc(Oc3ccccc3)c2)C1(C)C (centres undefined)
Reply: high range

Ask: Now give it for `CC[C@H]1CCC[C@H](O[C@H]2CC[C@H](N(C)C)[C@@H](C)O2)[C@@H](C)C(=O)C2=C[C@@H]3[C@@H](C=C(C)[C@@H]4C[C@@H](O[C@@H]5O[C@@H](C)[C@H](OC)[C@@H](OC)[C@H]5OC)C[C@@H]34)[C@@H]2CC(=O)O1.CC[C@H]1CCC[C@H](O[C@H]2CC[C@H](N(C)C)[C@@H](C)O2)[C@@H](C)C(=O)C2=C[C@H]3[C@@H]4C[C@H](O[C@@H]5O[C@@H](C)[C@H](OC)[C@@H](OC)[C@H]5OC)C[C@H]4C=C[C@H]3C2CC(=O)O1` too.
Reply: mid range

Ask: Also check `CCCCN(CCCC)SN(C)C(=O)Oc1cccc2c1OC(C)(C)C2`
Reply: high range

Ask: And `CO/C=C(/C(=O)OC)c1ccccc1Oc1cc(Oc2ccccc2C#N)ncn1` ?
Reply: high range

---

System: Serratia 1 (Serratia sp. 2015-2462-01)
Experiment: relative growth (AUC of 72 h growth curve relative to DMSO control, dAUC) (ratio); higher = more growth (less inhibition), active = hit call of the paper;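 active = growth AUC significantly below the DMSO wells by Dunnett test; inactive = the rest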
Settings: 20 µM
Give one outcome, nothing more. List: 1 = active, 0 = inactive

{"Compound": "COC(=O)Nc1nc2ccccc2[nH]1", "Target entity": "Serratia 1 (Serratia sp. 2015-2462-01)", "Label": 0}
{"Compound": "CCOC(=O)OC1=C(c2cc(C)ccc2C)C(=O)N[C@]12CC[C@@H](OC)CC2", "Target entity": "Serratia 1 (Serratia sp. 2015-2462-01)", "Label": 0}
{"Compound": "CCc1cnc(C2=NC(C)(C(C)C)C(=O)N2)c(C(=O)O)c1 (configuration not stated)", "Target entity": "Serratia 1 (Serratia sp. 2015-2462-01)", "Label": 0}
{"Compound": "CCSC(C)CC1CC(=O)C(/C(CC)=N/OC/C=C/Cl)=C(O)C1 (mixture of isomers)", "Target entity": "Serratia 1 (Serratia sp. 2015-2462-01)", "Label": 0}
{"Compound": "CCNC(=O)NC(=O)/C(C#N)=N/OC", "Target entity": "Serratia 1 (Serratia sp. 2015-2462-01)", "Label": 0}
{"Compound": "N#Cc1c[nH]cc1-c1cccc2c1OC(F)(F)O2", "Target entity": "Serratia 1 (Serratia sp. 2015-2462-01)", "Label": 0}
{"Compound": "C#CCOc1ccc(CCNC(=O)C(OCC#C)c2ccc(Cl)cc2)cc1OC (configuration not stated)", "Target entity": "Serratia 1 (Serratia sp. 2015-2462-01)", "Label": 0}
{"Compound": "O=C1C=C(N(Cc2ccc(Cl)nc2)CC(F)F)CO1", "Target entity": "Serratia 1 (Serratia sp. 2015-2462-01)", "Label": 0}
{"Compound": "CCC(C)c1ccccc1OC(=O)NC (configuration not stated)", "Target entity": "Serratia 1 (Serratia sp. 2015-2462-01)", "Label": 0}
{"Compound": "CO/C=C(/C(=O)OC)c1ccccc1COc1cccc(C(F)(F)F)n1", "Target entity": "Serratia 1 (Serratia sp. 2015-2462-01)", "Label": 0}

Ask: Recorded call for Cc1c(COC(=O)[C@@H]2[C@H](/C=C(\Cl)C(F)(F)F)C2(C)C)cccc1-c1ccccc1 (racemic) ?
Reply: 0

Ask: Would you mind doing `CC1(C)CON(Cc2ccccc2Cl)C1=O` as well?
Reply: 0

Ask: How about O=C1C2CC=CCC2C(=O)N1SC(Cl)(Cl)Cl (configuration not stated) ?
Reply: 1

Ask: Try this compound too: CCOC(=O)CC(SP(=S)(OC)OC)C(=O)OCC (configuration not stated)
Reply: 0

Ask: Try the compound CC1(C)C(C=C(Cl)Cl)C1C(=O)OC(C#N)c1ccc(F)c(Oc2ccccc2)c1 (configuration not stated)
Reply: 0

Ask: And for `CCOP(=S)(OCC)Oc1cc(C)nc(C(C)C)n1` ?
Reply: 0

Ask: Please do the same for `O=C(O)c1nc(Cl)ccc1Cl` as well.
Reply: 0

Ask: // next record CC(C)(C)C(O)(CCc1ccc(Cl)cc1)Cn1cncn1 (configuration not stated)
Reply: 0

Ask: Entry to check: `CC[C@H]1CCC[C@H](O[C@H]2CC[C@H](N(C)C)[C@@H](C)O2)[C@@H](C)C(=O)C2=C[C@@H]3[C@@H](C=C(C)[C@@H]4C[C@@H](O[C@@H]5O[C@@H](C)[C@H](OC)[C@@H](OC)[C@H]5OC)C[C@@H]34)[C@@H]2CC(=O)O1.CC[C@H]1CCC[C@H](O[C@H]2CC[C@H](N(C)C)[C@@H](C)O2)[C@@H](C)C(=O)C2=C[C@H]3[C@@H]4C[C@H](O[C@@H]5O[C@@H](C)[C@H](OC)[C@@H](OC)[C@H]5OC)C[C@H]4C=C[C@H]3C2CC(=O)O1`
Reply: 0

Ask: Queued: `CNC(=O)c1cc(Cl)cc(C)c1NC(=O)c1cc(Br)nn1-c1ncccc1Cl`
Reply: 0

Ask: Please give the result for `CCCCOC(=O)[C@H](C)Oc1ccc(Oc2ccc(C#N)cc2F)cc1` too.
Reply: 0

---

relative growth reference
Test system: Neobacillus 1 (Neobacillus soli)
Assay: relative growth (AUC of 72 h growth curve relative to DMSO control, dAUC) (ratio); higher = more growth (less inhibition), active = hit call of the paper
Conditions: 20 µM
Could you keep your reply to the number by itself?

Before answering, review these 3 worked examples.
{"Compound": "CC1COC(Cn2cncn2)(c2ccc(Oc3ccc(Cl)cc3)cc2Cl)O1 (stereo unspecified)", "Endpoint value": 1.08}
{"Compound": "Cc1cccc2sc3nncn3c12", "Endpoint value": 0.969}
{"Compound": "CCC(=O)Nc1ccc(Cl)c(Cl)c1", "Endpoint value": 0.962}

Ask: So what does the record say about relative growth for O=C1C2(Cl)C3(Cl)C4(Cl)C(Cl)(Cl)C5(Cl)C3(Cl)C1(Cl)C5(Cl)C24Cl (stereo unspecified) ?
Reply: 0.911

Ask: Next record, please: `CC(C)(C)[C@@H](O)[C@H](Oc1ccc(Cl)cc1)n1cncn1`
Reply: 1.04

Ask: `CN(C)C(CSS(=O)(=O)O)CSS(=O)(=O)O` , same question.
Reply: 1

---

Documented relative growth across a set of molecules
Test system: Hymenobacter 1 (Hymenobacter glaciei)
Assay: relative growth (AUC of 72 h growth curve relative to DMSO control, dAUC) (ratio); higher = more growth (less inhibition), active = hit call of the paper
Conditions: 20 µM
// no unit string in output, number only

Examples with answers:
{"Molecule": "COCc1cnc(C2=NC(C)(C(C)C)C(=O)N2)c(C(=O)O)c1 (stereo not drawn)", "relative growth": 1.02}
{"Molecule": "CNC(=O)c1cc(C#N)cc(C)c1NC(=O)c1cc(Br)nn1-c1ncccc1Cl", "relative growth": 0.978}

Attention now turns to another entry.
Ask: relative growth lookup needed for CCOC(=O)CC(SP(=S)(OC)OC)C(=O)OCC (stereo not drawn) , thanks.
Reply: 1.02

---

relative growth values by entry
Test system: Pseudomonas 6 (Pseudomonas sp.)
Test: relative growth (AUC of 72 h growth curve relative to DMSO control, dAUC) (ratio); higher = more growth (less inhibition), active = hit call of the paper
Conditions: 20 µM
Enter the number alone.

Take a look at these entries with their results.
{"Compound": "CC[C@H]1CCC[C@H](O[C@H]2CC[C@H](N(C)C)[C@@H](C)O2)[C@@H](C)C(=O)C2=C[C@@H]3[C@@H](C=C(C)[C@@H]4C[C@@H](O[C@@H]5O[C@@H](C)[C@H](OC)[C@@H](OC)[C@H]5OC)C[C@@H]34)[C@@H]2CC(=O)O1.CC[C@H]1CCC[C@H](O[C@H]2CC[C@H](N(C)C)[C@@H](C)O2)[C@@H](C)C(=O)C2=C[C@H]3[C@@H]4C[C@H](O[C@@H]5O[C@@H](C)[C@H](OC)[C@@H](OC)[C@H]5OC)C[C@H]4C=C[C@H]3C2CC(=O)O1", "relative growth": 1.01}
{"Compound": "COP(=S)(OC)Oc1ccc(SC)c(C)c1", "relative growth": 1.01}
{"Compound": "CC(C)N1C(=O)N(c2ccccc2)CS/C1=N\\C(C)(C)C", "relative growth": 1.07}
{"Compound": "COc1cccc(C(=O)NN(C(=O)c2cc(C)cc(C)c2)C(C)(C)C)c1C", "relative growth": 1.12}

Ask: Need relative growth, item `CCNc1nc(Cl)nc(NC(C)C)n1`
Reply: 0.945

Ask: Try the compound `COC(=O)N(C(=O)N1CO[C@@]2(C(=O)OC)Cc3cc(Cl)ccc3C2=N1)c1ccc(OC(F)(F)F)cc1`
Reply: 0.966
